Could you please report measured IC50 for the items listed next?
# targetOrTestSystem: NRAS Q61K (Homo sapiens, UniProt P01111+P62937, Q61K)
# Sequence (P01111 whole entry Q61K): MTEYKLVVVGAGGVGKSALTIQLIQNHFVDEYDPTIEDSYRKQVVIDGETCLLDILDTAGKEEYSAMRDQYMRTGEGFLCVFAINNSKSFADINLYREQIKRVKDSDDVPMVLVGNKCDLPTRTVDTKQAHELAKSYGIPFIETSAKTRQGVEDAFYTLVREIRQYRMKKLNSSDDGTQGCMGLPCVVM
# Sequence (P62937 whole entry): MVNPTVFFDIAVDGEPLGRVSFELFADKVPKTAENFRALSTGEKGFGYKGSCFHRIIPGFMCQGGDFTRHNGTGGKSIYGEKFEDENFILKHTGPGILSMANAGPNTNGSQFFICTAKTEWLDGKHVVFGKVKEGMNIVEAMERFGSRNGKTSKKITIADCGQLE
# experimentalProtocol: Disruption of BRAF RBD interaction with Ras (FRET / MOA assay, with Cyclophilin A)
# Format: biochemical
# conditionParameters: NRAS Q61K; read-out: NRAS Q61K FRET data IC50

The cases that follow already have their IC50 on record.
C=CC(=O)N1CCC[C@@H]2CN(C(=O)N(C)[C@H](C(=O)N[C@H]3Cc4nc(cs4)-c4ccc5c(c4)c(c(-c4cccnc4[C@H](C)OC)n5CC)CC(C)(C)COC(=O)C4CCCN(N4)C3=O)C(C)C)C[C@@H]21 (stereo partly shown)
100 to 1000 nM
CCn1c(-c2cccnc2[C@H](C)OC)c2c3cc(ccc31)-c1csc(n1)C[C@H](NC(=O)[C@H](C(C)C)N(C)C(=O)N1CC3(C1)CS(=O)(=O)CCN3C)C(=O)N1CCC[C@H](N1)C(=O)OCC(C)(C)C2
100 to 1000 nM
C=CC(=O)N1CC[C@H](C(=O)N(C)[C@H](C(=O)N[C@H]2Cc3cc(O)cc(c3)-c3ccc4c(c3)c(c(-c3ccnc5c3[C@@H](OC)CC5)n4CC)CC(C)(C)COC(=O)[C@@H]3CCCN(N3)C2=O)C(C)C)C1
100 to 1000 nM

Read the next record carefully.
Q. Return value of IC50 for input CCn1c(-c2cccnc2[C@H](C)OC)c2c3cc(ccc31)-c1csc(n1)C[C@H](NC(=O)[C@H](C(C)C)N(C)C(=O)N1CC(CO)C1)C(=O)N1CCC[C@H](N1)C(=O)OCC(C)(C)C2 (atropisomer, axis not shown) , no commentary.
A. 10 to 100 nM
